Target: human recombinant ATX (Homo sapiens, UniProt Q13822)
Assay: Autotaxin (ATX) activity Quanta Red assay
Format: biochemical
Settings: read-out: Activity (ATX activity, Quanta Red assay; IC50)
readout: IC50 (nM)
Write down the numeric answer in nM and omit the unit.

Some entries whose results are on file:
| smiles.repr | tested.on | IC50 (nM) |
| --- | --- | --- |
| Cc1cnc2c(c1)nc(CCC(=O)N[C@@H](C)c1ccc(N3CCN[C@@H](C)C3)cc1)n2Cc1ccc(OC(F)(F)F)cc1 | human recombinant ATX (Homo sapiens, UniProt Q13822) | 56 |
| COc1ccc(Cn2c(CCC(=O)NCCc3ccc(C)cc3)nc3cccnc32)cc1 | human recombinant ATX (Homo sapiens, UniProt Q13822) | 180 |
| C[C@H](NC(=O)CCc1cc2cc(F)cnc2n1Cc1ccc(OC(F)(F)F)cc1)c1ccc(F)cc1 | human recombinant ATX (Homo sapiens, UniProt Q13822) | 13 |

Now for another entry.
INPUT: Give the reported value of IC50 for this record: COc1ccc(CNC(=O)CCc2nc3cccnc3n2Cc2ccc(OC(F)(F)F)cc2)cc1F
OUTPUT: 4

---

Molecular target: human recombinant ATX (Homo sapiens, UniProt Q13822)
Test: Autotaxin (ATX) activity Quanta Red assay
Format: biochemical
Details: read-out: Activity (ATX activity, Quanta Red assay; IC50)
Measured pIC50 of individual entries
Please express pIC50 as -log10 of the molar concentration.

INPUT: Give the reported value of pIC50 for this record: CC(C)(NC(=O)CCc1nc2ccncc2n1Cc1ccc(F)cc1)c1ccccc1 [Example 136]
OUTPUT: 6.94

INPUT: Give the reported value of pIC50 for this record: O=C(CCc1nc2cccnc2n1Cc1ccc(OC(F)(F)F)cc1)NCc1ccc(OC(F)(F)F)cc1 [Example 22]
OUTPUT: 8.40

INPUT: Give the reported value of pIC50 for this record: C[C@H](NC(=O)CCc1nc2cccnc2n1Cc1ccc(OC(F)(F)F)cc1)c1ccc(N2CCN[C@@H](C)C2)cc1 [Example 176]
OUTPUT: 8.52

INPUT: Give the reported value of pIC50 for this record: O=C(CCc1nc2cccnc2n1Cc1ccc(C(F)(F)F)cc1)NC(CO)c1ccc(OC(F)(F)F)cc1 (centres unmarked) [Example 32]
OUTPUT: 8.22

INPUT: Give the reported value of pIC50 for this record: O=C(CCc1nc2ccncc2n1Cc1ccc(OC(F)(F)F)cc1)NC(CO)c1ccc(OC(F)(F)F)cc1 (centres unmarked) [Example 126]
OUTPUT: 7.96

INPUT: Give the reported value of pIC50 for this record: O=C(CCc1nc2cccnc2n1Cc1ccc(OC(F)(F)F)cc1)NCc1ccc(F)cc1 [Example 30]
OUTPUT: 8.30

INPUT: Give the reported value of pIC50 for this record: C[C@H](NC(=O)CCc1nc2cccnc2n1Cc1ccc(F)c(F)c1)c1ccc(F)cc1 [Example 95]
OUTPUT: 7.59

INPUT: Give the reported value of pIC50 for this record: CN(C)CCCOc1ccc(CNC(=O)CCc2nc3cccnc3n2Cc2ccc(OC(F)(F)F)cc2)cc1 [Example 10]
OUTPUT: 8.70

INPUT: Give the reported value of pIC50 for this record: O=C(CCc1nc2cccnc2n1Cc1ccc(F)c(F)c1)NC(CO)c1ccc(OC(F)(F)F)cc1 (centres unmarked) [Example 39]
OUTPUT: 8.15

INPUT: Give the reported value of pIC50 for this record: CC[C@H](NC(=O)CCc1nc2cccnc2n1Cc1ccc(F)c(F)c1)c1ccccc1 [Example 89]
OUTPUT: 8.10

INPUT: Give the reported value of pIC50 for this record: CN(C)CCCOc1ccc(CNC(=O)CCc2nc3ccncc3n2Cc2ccc(OC(F)(F)F)cc2)cc1 [Example 128]
OUTPUT: 7.77

INPUT: Give the reported value of pIC50 for this record: C[C@H](NC(=O)CCc1nc2cccnc2n1Cc1ccc(OC(F)(F)F)cc1)[C@H](O)c1ccccc1 [Example 41]
OUTPUT: 8.00

INPUT: Give the reported value of pIC50 for this record: C[C@H](NC(=O)CSc1nc2cccnc2n1Cc1ccc(OC(F)(F)F)cc1)c1ccc(Cl)cc1 [Example 144]
OUTPUT: 8.70

---

Molecular target: human recombinant ATX (Homo sapiens)
Experiment: Autotaxin (ATX) activity Quanta Red assay
Type: biochemical
Settings: read-out: Activity (ATX activity, Quanta Red assay; IC50)
pIC50: −log10 of the molar value.
Could you please classify the records by pIC50 using these ranges: bin A (below 7), bin B (7 to below 8), bin C (8 or more)

| compound | classification |
| --- | --- |
| O=C(CCc1nc2ccncc2n1Cc1ccc(OC(F)(F)F)cc1)NCc1ccc(Cl)cc1 | bin B |

INPUT: Assign a category based on measured pIC50 for COc1ccc(Cn2c(CCC(=O)N(C)Cc3ccccc3)nc3cccnc32)cc1 and give only the class name.
OUTPUT: bin A

INPUT: Assign a category based on measured pIC50 for C[C@H](NC(=O)CCc1nc2cccnc2n1Cc1ccc(OC(F)(F)F)cc1)c1ccc(NC2CCN(C)CC2)cc1 and give only the class name.
OUTPUT: bin C

INPUT: Assign a category based on measured pIC50 for CCN(CC)Cc1ccc([C@H](C)NC(=O)CCc2nc3cccnc3n2Cc2ccc(F)c(F)c2)cc1 and give only the class name.
OUTPUT: bin B

INPUT: Assign a category based on measured pIC50 for O=C(CCc1nc2cccnc2n1Cc1ccc(F)cc1)NCc1ccc(F)cc1 and give only the class name.
OUTPUT: bin B

INPUT: Assign a category based on measured pIC50 for C[C@H](NC(=O)CCc1nc2cccnc2n1Cc1ccc(F)c(F)c1)c1ccc(N2CCNC(C(F)(F)F)C2)cc1 (stereo partly shown) and give only the class name.
OUTPUT: bin C

INPUT: Assign a category based on measured pIC50 for COc1ccc(CNC(=O)CCc2nc3cc(F)cnc3n2Cc2ccccc2OC)cc1 and give only the class name.
OUTPUT: bin B

INPUT: Assign a category based on measured pIC50 for O=C(CCc1nc2cccnc2n1Cc1ccc(F)c(F)c1)NC(CCO)c1ccc(F)cc1 (stereo not shown) and give only the class name.
OUTPUT: bin B

INPUT: Assign a category based on measured pIC50 for C[C@H](NC(=O)CCc1nc2cccnc2n1Cc1ccc(OC(F)(F)F)cc1)c1ccc(N2CC[C@H](N(C)C)C2)cc1 and give only the class name.
OUTPUT: bin C

INPUT: Assign a category based on measured pIC50 for COc1ccc(Cn2c(CCC(=O)N(C)Cc3ccc(F)cc3)nc3cccnc32)cc1 and give only the class name.
OUTPUT: bin A

INPUT: Assign a category based on measured pIC50 for O=C(CCc1nc2cccnc2n1Cc1cccs1)N[C@H](Cc1ccccc1)C(=O)O and give only the class name.
OUTPUT: bin A

INPUT: Assign a category based on measured pIC50 for O=C(CCc1nc2cccnc2n1Cc1ccc(F)c(F)c1)NC[C@H](O)c1ccccc1 and give only the class name.
OUTPUT: bin A

INPUT: Assign a category based on measured pIC50 for C[C@H](NC(=O)CCc1nc2cc(Br)cnc2n1Cc1ccc(F)cc1)c1ccc(Cl)cc1 and give only the class name.
OUTPUT: bin A

INPUT: Assign a category based on measured pIC50 for CC[C@H]1CN(c2ccc([C@H](C)NC(=O)CCc3nc4cccnc4n3Cc3ccc(OC(F)(F)F)cc3)cc2)CCN1 and give only the class name.
OUTPUT: bin C

INPUT: Assign a category based on measured pIC50 for C[C@H](NC(=O)CCc1nc2cccnc2n1Cc1ccc(OCc2ccccc2)cc1)c1ccc(Cl)cc1 and give only the class name.
OUTPUT: bin A

INPUT: Assign a category based on measured pIC50 for C[C@H](NC(=O)CCc1nc2cccnc2n1Cc1ccc(F)c(F)c1)c1ccc(N2CC[C@@H](O)C2)cc1 and give only the class name.
OUTPUT: bin B

INPUT: Assign a category based on measured pIC50 for COc1ccc(CNC(=O)CCc2nc3cccnc3n2Cc2cccc(F)c2)cc1 and give only the class name.
OUTPUT: bin A

INPUT: Assign a category based on measured pIC50 for CC(NC(=O)CCc1nc2cccnc2n1Cc1ccc(OC(F)(F)F)cc1)C1CCOCC1 (stereo not shown) and give only the class name.
OUTPUT: bin B

INPUT: Assign a category based on measured pIC50 for C[C@H](NC(=O)CCc1nc2cccnc2n1Cc1ccc(OC(F)(F)F)cc1)c1ccc(N2CC[C@@H](N(C)C)C2)cc1 and give only the class name.
OUTPUT: bin C

INPUT: Assign a category based on measured pIC50 for O=C(CCc1nc2cccnc2n1Cc1ccc(OC(F)F)cc1)N[C@H](Cc1ccccc1)C(=O)O and give only the class name.
OUTPUT: bin C

INPUT: Assign a category based on measured pIC50 for O=C(CCc1nc2cccnc2n1Cc1ccc(C(F)(F)F)cc1)N[C@H](Cc1ccccc1)C(=O)O and give only the class name.
OUTPUT: bin C

INPUT: Assign a category based on measured pIC50 for O=C(CCc1nc2cccnc2n1Cc1ccc(F)c(F)c1)NCc1ccccn1 and give only the class name.
OUTPUT: bin A
